tested on: COR-L 105; assay: relative viability (nuclei count vs DMSO), 5 days (fraction); higher = more cells survive; conditions: first compound 0.01 µM
PARAMETER MEASURED: relative viability

CC(C)Oc1cc(Nc2nc(N[C@@H](C)c3ccc(F)cn3)ncc2Cl)n[nH]1 [AZ23] + COc1cc2c(Oc3ccc(NC(=O)C4(C(=O)Nc5ccc(F)cc5)CC4)cc3F)ccnc2cc1OCCCN1CCOCC1 [Foretinib] (partner 0.25 µM) : 1.07

Which value of relative viability has been reported for CC(C)Oc1cc(Nc2nc(N[C@@H](C)c3ccc(F)cn3)ncc2Cl)n[nH]1 [AZ23] + CCNC(=O)c1noc(-c2cc(C(C)C)c(O)cc2O)c1-c1ccc(CN2CCOCC2)cc1 [Luminespib] (partner 0.01 µM) in the records? 0.83

Where do these numbers come from? They come from the supplement of paper PMC10307832.
